All figures here come from paper PMC12119275.

Tested on: B.1.1.28 (gamma) SARS-CoV-2pp
test-name: microbe, parasite or virus in culture
Assay type: cell-based
cond: Severe acute respiratory syndrome coronavirus 2, HEK293, 48 h, read-out: EC50 B.1.1.28 (gamma) SARS-CoV-2pp
experimental-readout: pEC50
pEC50 is a log-scale quantity: -log10 of the concentration expressed in molar.

Q: Fill in the blank: the reported pEC50 of c1ccc2c(c1)CCCc1cc(-c3nnc(Nc4ccc5c(c4)CCC(N4CCCC4)CC5)o3)nnc1-2 (stereo not drawn) [WYS-633] is ____.
A: 5.78

Q: Thanks! And Nc1nc(Nc2ccc3c(c2)CC[C@@H](N2CCCC2)CC3)nn1-c1cc2c(nn1)-c1ccccc1CCC2 [Bemcentinib, bemcentinib, reference compound] ?
A: 6.38

Q: Now try FC(F)(F)c1nc(Nc2ccc3c(c2)CCC(N2CCCC2)CC3)n(-c2cc3c(nn2)-c2ccccc2CCC3)n1 (stereo not drawn) [WYS-694] .
A: 6.80

----------
System: B.1.351 (beta) SARS-CoV-2pp
test-name: microbe, parasite or virus in culture
Format: cell-based
cond: Severe acute respiratory syndrome coronavirus 2, HEK293, 48 h, read-out: EC50 B.1.351 (beta) SARS-CoV-2pp
experimental-readout: pEC50
Expect pEC50 as a plain number equal to -log10 of the molar concentration.

{"columns": ["compound", "pEC50"],
 "data": [
  ["c1ccc2c(c1)CCCc1cc(-c3nnc(Nc4ccc5c(c4)CCC(N4CCCC4)CC5)o3)nnc1-2 (stereo not drawn)", 5.90],
  ["Nc1nc(Nc2ccc3c(c2)CC[C@@H](N2CCCC2)CC3)nn1-c1cc2c(nn1)-c1ccccc1CCC2 [Bemcentinib, bemcentinib, reference compound]", 6.41]
]}

Kindly review the next compound as well.
Q: Report pEC50 for FC(F)(F)c1nc(Nc2ccc3c(c2)CCC(N2CCCC2)CC3)n(-c2cc3c(nn2)-c2ccccc2CCC3)n1 (stereo not drawn) please.
A: 6.74

----------
test-name: Pharmacokinetics analysis in mice
cond: C57 Bl/6, mouse, plasma, po, 100 mg/kg
experimental-readout: Cmax (ng/mL)
Kindly answer with a numeric value in ng/mL, unit omitted.

{"columns": ["molecule", "units-symbol", "reported-value"],
 "data": [
  ["c1ccc2c(c1)CCCc1cc(-c3nnc(Nc4ccc5c(c4)CCC(N4CCCC4)CC5)o3)nnc1-2 (centres unmarked)", "ng/mL", 950]
]}

Next molecule, Cmax to be filled in.
Q: What Cmax value was documented for this molecule, Nc1nc(Nc2ccc3c(c2)CC[C@@H](N2CCCC2)CC3)nn1-c1cc2c(nn1)-c1ccccc1CCC2 [Bemcentinib, bemcentinib, reference compound] ?
A: 1760

----------
test-name: Pharmacokinetics analysis in mice
cond: C57 Bl/6, mouse, plasma, po, 30 mg/kg
experimental-readout: Tmax (h)
Give the number; h is assumed, so skip it.

Q: // query Tmax value for entry FC(F)(F)c1nc(Nc2ccc3c(c2)CCC(N2CCCC2)CC3)n(-c2cc3c(nn2)-c2ccccc2CCC3)n1 (stereo not shown)
A: 24

----------
Tested on: B.1.1.529 (omicron) SARS-CoV-2pp
test-name: microbe, parasite or virus in culture
Type: cell-based
cond: Severe acute respiratory syndrome coronavirus 2, HEK293, 48 h, read-out: EC50 B.1.1.529 (omicron) SARS-CoV-2pp
experimental-readout: EC50 (nM)
Lab book: enter the figure in nM, no units written.

{"columns": ["molecule", "units-symbol", "EC50"],
 "data": [
  ["FC(F)(F)c1nc(Nc2ccc3c(c2)CCC(N2CCCC2)CC3)n(-c2cc3c(nn2)-c2ccccc2CCC3)n1 (stereo not drawn) [WYS-694]", "nM", 130]
]}

Q: Give recorded EC50 with B.1.1.529 (omicron) SARS-CoV-2pp for the following molecule: Nc1nc(Nc2ccc3c(c2)CC[C@@H](N2CCCC2)CC3)nn1-c1cc2c(nn1)-c1ccccc1CCC2 [Bemcentinib, bemcentinib, reference compound]
A: 210

Q: How about this molecule: c1ccc2c(c1)CCCc1cc(-c3nnc(Nc4ccc5c(c4)CCC(N4CCCC4)CC5)o3)nnc1-2 (stereo not drawn) [WYS-633]
A: 1030

----------
test-name: Pharmacokinetics analysis in mice
cond: C57 Bl/6, mouse, plasma, po, 100 mg/kg
experimental-readout: AUC (ng·h/mL)
Unit ng·h/mL implied. Number only.

{"columns": ["molecule", "AUC / ng·h/mL"],
 "data": [
  ["Nc1nc(Nc2ccc3c(c2)CC[C@@H](N2CCCC2)CC3)nn1-c1cc2c(nn1)-c1ccccc1CCC2 [Bemcentinib, bemcentinib, reference compound]", 33300]
]}

Q: Which AUC is reported for this molecule? c1ccc2c(c1)CCCc1cc(-c3nnc(Nc4ccc5c(c4)CCC(N4CCCC4)CC5)o3)nnc1-2 (centres unmarked)
A: 7920

----------
# IC50 per record follows
Tested on: SARS-CoV-2pp
test-name: microbe, parasite or virus in culture
Format: cell-based
cond: Severe acute respiratory syndrome coronavirus 2, HEK293, read-out: IC50, inhibition of SARS-CoV-2pp infection of HEK-293-hACE2 cells
Please give a number only; it is taken to be in µM.

{"columns": ["compound", "experimental-readout", "reported-value"],
 "data": [
  ["Nc1nc(Nc2ccc3c(c2)CC[C@@H](N2CCCC2)CC3)nn1-c1cc2c(nn1)-c1ccccc1CCC2 [Bemcentinib, bemcentinib, reference compound]", "IC50", 5.7]
]}

// below: IC50 requested for another compound
Q: What does the record list as IC50 for c1ccc2c(c1)CCCc1cc(-c3nnc(Nc4ccc5c(c4)CCC(N4CCCC4)CC5)o3)nnc1-2 (centres unmarked) ?
A: 2.52
